Experiment Summary: viability loss with induced miR-34 in A549 – imaging, A549 dox-inducible miR-34, nuclei and caspase counts, primary screen (AID 1347080); note: test concentration not given here
Condition Details: A549 miR-34 inducible, Hoechst nuclei count, 48 h; measured here: total cells with miR-34 induction; stronger effect = lower value
Measurement Label: cell count

Look over these answered cases.
[
  {
    "Molecule": "CNCCc1cnc(CCC(c2ccccc2)c2ccccc2)[nH]1",
    "cell count": 5430
  },
  {
    "Molecule": "CCC1OC(=O)C(C)C(OC2C[C@@](C)(OC)C(O)C(C)O2)C(C)C(OC2OC(C)CC(N(C)C)C2O)[C@@](C)(O)CC(C)[C@@H]2NC(COCCOC)OC(C2C)[C@]1(C)O (stereo not given in full)",
    "cell count": 8840
  }
]

Each molecule below has a recorded value; state its cell count.
1. Cn1nc(C(C)(C)C)cc1C(=O)NC(Cc1cccc(Cl)c1)C(=O)NCC#N (stereo not given)
2. S=C=Nc1cccc(NC(=S)NCCCCNC(=S)Nc2cccc(N=C=S)c2)c1
3. Cn1c(-c2ccc3c(c2)OCO3)cc(=O)c2ccccc21
4. O=C(NCCO)c1cccc(-c2cc(Nc3ccc(OC(F)(F)F)cc3)ncn2)c1
5. C=C1C(CO)C(O)CC1n1cnc2c(=O)[nH]c(N)nc21 (stereo not given)
6. COC(=O)NC(C(=O)NC(Cc1ccccc1)C(O)CN(Cc1ccc(-c2ccccn2)cc1)NC(=O)C(NC(=O)OC)C(C)(C)C)C(C)(C)C (stereo not given)

Response:
[7540, 7440, 8470, 7400, 7270, 6490]

Each molecule below has a recorded value; state its cell count.
1. OCc1ccc(OC2OC(CO)C(O)C(O)C2O)cc1 (stereo not given)
2. CC(C)=CCC/C(C)=C/CC1=C(C)C(=O)c2ccccc2C1=O

Response:
1: 8280; 2: 6780

Each molecule below has a recorded value; state its cell count.
1. O=C1CCC(CC(=O)N2CCc3[nH]nc(-c4ccc5c(c4)OCO5)c3C2)N1 (stereo not given)
2. CNC(=O)C(Cc1ccccc1)NC(=O)C(CC(C)C)C(CSc1cccs1)C(=O)NO (stereo not given)

Response:
1: 9140; 2: 6630

====

Experiment Summary: MELAS cybrid and Rieske KO viability enhancers – cell-based, MELAS cybrids, Rieske KO mouse fibroblasts, CellTiter-Glo, primary screen (AID 1508586);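 note: test concentration not given here; z relative to plate mean and SD of compound and empty wells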
Condition Details: MELAS cybrid survival, low glucose, CellTiter-Glo 48 h; stronger effect = higher value
Assign z-score to each entry below.
One number for each entry.

Look over these answered cases.
[
  {
    "Compound": "CC(C)c1nc(CN(C)C(=O)NC(CCN2CCOCC2)C(=O)NC(CCC(Cc2ccccc2)NC(=O)OCc2cncs2)Cc2ccccc2)cs1 (centres undefined)",
    "Measurement": -0.312
  },
  {
    "Compound": "Cc1cc(C=C2SC(=S)NC2=O)c(C)n1-c1cccnc1",
    "Measurement": -0.359
  },
  {
    "Compound": "C=C1C(=CC=C2CCC[C@@]3(C)[C@H]2CC[C@H]3C(C)C=CC(C)C(C)C)CC(O)CC1O (some centres undefined)",
    "Measurement": -0.45
  },
  {
    "Compound": "Cc1cc(C(=O)Nc2ccc3c(c2)CC(=O)N3)c(C)o1",
    "Measurement": -0.11
  },
  {
    "Compound": "CCOC(=O)N1CCC(N2CCc3c(cc(-c4cccc(OC)c4OC)c(=O)n3CC3CC3)C2)CC1",
    "Measurement": -0.362
  }
]

Each compound below has a recorded value; state its z-score.
1. CCOC(=O)c1ccc(N2NC(=O)C(=Cc3ccc([N+](=O)[O-])o3)C2=O)cc1
2. CCC(=O)OCC(=O)C1(OC(=O)CC)[C@H](C)C[C@H]2[C@H]3[C@H]([C@@H](O)C[C@@]21C)[C@@]1(C)C=CC(=O)C=C1C[C@H]3Cl (some centres undefined)
3. COc1cc(OC)c(C=CS(=O)(=O)Cc2ccc(OC)c(NCC(=O)O)c2)c(OC)c1
4. O=C(Nc1cccnc1)C1CCN(C(=O)c2ccccc2Cl)CC1

Response:
1. -0.255
2. 0.535
3. 0.468
4. 0.0994
